system: Escherichia coli; experiment: Antibacterial activity against Escherichia coli DH52 by micro broth dilution method; assay type: functional
measured-parameter: MIC
Your reply should be a number followed by the unit it is expressed in.

CCn1cc(C(=O)O)c(=O)c2cc(F)c(N3CCN(Cc4nc5ccccc5n4Cc4cccc(Cl)c4)CC3)cc21 :: 8 µg/mL

Find the measured MIC of CCCCCCCCCCCCCCCCCCn1c(CN2CCN(c3cc4c(cc3F)c(=O)c(C(=O)O)cn4CC)CC2)nc2ccccc21 and report it.
256 µg/mL

# return recorded MIC for input CCCCCn1c(CN2CCN(c3cc4c(cc3F)c(=O)c(C(=O)O)cn4CC)CC2)nc2ccccc21
8 µg/mL

Let me know recorded MIC for O=C(O)c1cn(C2CC2)c2cc(N3CCN(Cc4nc5ccccc5n4Cc4cccc(Cl)c4)CC3)c(F)cc2c1=O , thanks.
0.5 µg/mL

Consider the compound O=C(O)c1cn(C2CC2)c2cc(N3CCN(Cc4nc5ccc(Br)cc5[nH]4)CC3)c(F)cc2c1=O . State its measured MIC.
8 µg/mL

Fill in MIC for record CCCCCCCCn1c(CN2CCN(c3cc4c(cc3F)c(=O)c(C(=O)O)cn4CC)CC2)nc2ccccc21
8 µg/mL

Indicate the recorded MIC value for this compound: CCCCCCn1c(CN2CCN(c3cc4c(cc3F)c(=O)c(C(=O)O)cn4C3CC3)CC2)nc2ccccc21
16 µg/mL

Answer with the recorded MIC of CCn1cc(C(=O)O)c(=O)c2cc(F)c(N3CCN(Cc4nc5ccccc5n4Cc4cccc(F)c4)CC3)cc21 only.
128 µg/mL

* * *

tested on: Escherichia coli; assay: Antibacterial activity against Escherichia coli DH52 by micro broth dilution method; assay type: functional
Recorded log10 MIC values for a group of compounds are listed next.
Quick note: numbers are log10 of MIC, with µg/mL as the unit.

CCCCCCCCn1c(CN2CCN(c3cc4c(cc3F)c(=O)c(C(=O)O)cn4C3CC3)CC2)nc2ccccc21 :: -0.30

Specify reported log10 MIC for the compound shown: O=C(O)c1cn(C2CC2)c2cc(N3CCN(CNc4nc5ccccc5[nH]4)CC3)c(F)cc2c1=O
0.00

Provide log10 MIC value for the following compound: CCn1cc(C(=O)O)c(=O)c2cc(F)c(N3CCN(Cc4nc5ccccc5n4Cc4ccccc4F)CC3)cc21
2.71

Give me measured log10 MIC, please, for this compound: CCn1cc(C(=O)O)c(=O)c2cc(F)c(N3CCN(Cc4nc5ccccc5[nH]4)CC3)cc21
-0.30

Dear colleague, please send me the reported log10 MIC for O=C(O)c1cn(C2CC2)c2cc(N3CCN(Cc4nc5ccccc5n4Cc4ccccc4F)CC3)c(F)cc2c1=O when you can.
0.00

Report log10 MIC for CCCn1c(CN2CCN(c3cc4c(cc3F)c(=O)c(C(=O)O)cn4CC)CC2)nc2ccccc21
1.51

Determine from records and report log10 MIC for O=C(O)c1cn(C2CC2)c2cc(N3CCN(Cc4nc5ccccc5n4Cc4ccc(F)cc4)CC3)c(F)cc2c1=O
1.51

Kindly indicate its recorded log10 MIC. Item: O=C(O)c1cn(C2CC2)c2cc(N3CCN(CCc4nc5ccccc5[nH]4)CC3)c(F)cc2c1=O
0.60

Give the measured log10 MIC for CCn1cc(C(=O)O)c(=O)c2cc(F)c(N3CCNCC3)cc21 [NORFLOXACIN]
0.00

* * *

tested on: Pseudomonas aeruginosa; assay: Antibacterial activity against Pseudomonas aeruginosa ATCC 27853 by micro broth dilution method; format: functional
measured-parameter: MIC (µg/mL)
Your answer is read as µg/mL, so omit the unit and give the number.

Below: 3 molecules and their reported MIC.
CCCn1c(CN2CCN(c3cc4c(cc3F)c(=O)c(C(=O)O)cn4C3CC3)CC2)nc2ccccc21 :: 1
O=C(O)c1cn(C2CC2)c2cc(N3CCN(Cc4nc5ccc([N+](=O)[O-])cc5[nH]4)CC3)c(F)cc2c1=O :: 0.5
CCn1cc(C(=O)O)c(=O)c2cc(F)c(N3CCN(CCc4nc5ccccc5[nH]4)CC3)cc21 :: 32

Respond only with MIC recorded for CCn1cc(C(=O)O)c(=O)c2cc(F)c(N3CCN(Cc4nc5ccccc5n4Cc4cccc(F)c4)CC3)cc21
8

Look up and report measured MIC for this entry: CCn1cc(C(=O)O)c(=O)c2cc(F)c(N3CCN(Cc4nc5ccc([N+](=O)[O-])cc5[nH]4)CC3)cc21
2

Tell me its MIC given CCCn1c(CN2CCN(c3cc4c(cc3F)c(=O)c(C(=O)O)cn4CC)CC2)nc2ccccc21 as the entry.
32

Give reported MIC value for CCCCCn1c(CN2CCN(c3cc4c(cc3F)c(=O)c(C(=O)O)cn4C3CC3)CC2)nc2ccccc21
2

Please look at this molecule and report its MIC: CCn1cc(C(=O)OC)c(=O)c2cc(F)c(N3CCN(/C=N\c4nc5ccccc5[nH]4)CC3)cc21
8

* * *

system: Saccharomyces cerevisiae; experiment: Antifungal activity against Saccharomyces cerevisiae ATCC 9763 after 24 hrs by micro broth dilution method; assay type: functional; settings: ATCC 9763, 24 h
Listed here are molecules together with their documented MIC80.
Write the value in µg/mL as a bare number.

Give the value of MIC80 reported for the following: O=C(O)c1cn(C2CC2)c2cc(N3CCN(Cc4nc5ccccc5n4Cc4cccc(Cl)c4)CC3)c(F)cc2c1=O
0.5

Complete the entry with MIC80 for CCCCCn1c(CN2CCN(c3cc4c(cc3F)c(=O)c(C(=O)O)cn4CC)CC2)nc2ccccc21
64

State its MIC80 for this molecule: CCCCCCn1c(CN2CCN(c3cc4c(cc3F)c(=O)c(C(=O)O)cn4C3CC3)CC2)nc2ccccc21
128

Provide one value: measured MIC80 of CCn1cc(C(=O)O)c(=O)c2cc(F)c(N3CCN(Cc4nc5ccccc5n4Cc4cccc(Cl)c4)CC3)cc21
8

Kindly indicate its recorded MIC80. Item: CCCCCCCCCCn1c(CN2CCN(c3cc4c(cc3F)c(=O)c(C(=O)O)cn4C3CC3)CC2)nc2ccccc21
16

Kindly indicate its recorded MIC80. Item: CCCCCCn1c(CN2CCN(c3cc4c(cc3F)c(=O)c(C(=O)O)cn4CC)CC2)nc2ccccc21
128

Output MIC80 of CCn1cc(C(=O)O)c(=O)c2cc(F)c(N3CCN(Cc4nc5ccccc5n4Cc4ccc(F)cc4)CC3)cc21
8

* * *

test system: Saccharomyces cerevisiae; assay: Antifungal activity against Saccharomyces cerevisiae ATCC 9763 after 24 hrs by micro broth dilution method; type: functional; conditions: ATCC 9763, 24 h
Classify: 1 when MIC80 is strictly less than 20 µg/mL; 0 when MIC80 is not.

O=C(O)c1cn(C2CC2)c2cc(N3CCN(Cc4nc5ccc(Cl)cc5[nH]4)CC3)c(F)cc2c1=O :: 1
CCn1cc(C(=O)O)c(=O)c2cc(F)c(N3CCN(Cc4nc5ccc(Br)cc5[nH]4)CC3)cc21 :: 1
CCCCCCCCCCCCn1c(CN2CCN(c3cc4c(cc3F)c(=O)c(C(=O)O)cn4CC)CC2)nc2ccccc21 :: 0

MIC80 under 20 µg/mL? Item: CCCCCCCCn1c(CN2CCN(c3cc4c(cc3F)c(=O)c(C(=O)O)cn4C3CC3)CC2)nc2ccccc21
1

A record lists CCn1cc(C(=O)O)c(=O)c2cc(F)c(N3CCN(Cc4nc5ccccc5n4Cc4ccccc4F)CC3)cc21 . Is its MIC80 below 20 µg/mL?
0

Bench note: check whether O=C(O)c1cn(C2CC2)c2cc(N3CCN(Cc4nc5ccccc5n4Cc4ccccc4F)CC3)c(F)cc2c1=O shows MIC80 below 20 µg/mL
0

MIC80 under 20 µg/mL? Item: O=C(O)c1cn(C2CC2)c2cc(N3CCN(Cc4nc5ccc(F)cc5[nH]4)CC3)c(F)cc2c1=O
1

Hi there! Is MIC80 for CCCCCCCCn1c(CN2CCN(c3cc4c(cc3F)c(=O)c(C(=O)O)cn4CC)CC2)nc2ccccc21 below 20 µg/mL, do you know?
1

* * *

Recorded MIC by entry
tested on: Bacillus spizizenii; test: Antibacterial activity against Bacillus subtilis ATCC 6633 by micro broth dilution method; format: functional
Response body: numeric value in µg/mL, unit text excluded.

Fill in MIC for record O=C(O)c1cn(C2CC2)c2cc(N3CCN(CNc4nc5ccccc5[nH]4)CC3)c(F)cc2c1=O
1

Return the recorded MIC value; entry: O=C(O)c1cn(C2CC2)c2cc(N3CCN(Cc4nc5ccccc5n4Cc4ccccc4Cl)CC3)c(F)cc2c1=O
0.5

Output measured MIC for this item: CCn1cc(C(=O)OC)c(=O)c2cc(F)c(N3CCN(/C=N\c4nc5ccccc5[nH]4)CC3)cc21
4

Quote MIC reported for CCn1cc(C(=O)O)c(=O)c2cc(F)c(N3CCN(Cc4nc5ccccc5n4Cc4ccccc4Cl)CC3)cc21 please.
16

Report measured MIC; entry is CCn1cc(C(=O)O)c(=O)c2cc(F)c(N3CCN(CNc4nc5ccccc5[nH]4)CC3)cc21
8

Identify measured MIC corresponding to CCCCCCCCn1c(CN2CCN(c3cc4c(cc3F)c(=O)c(C(=O)O)cn4C3CC3)CC2)nc2ccccc21
32

For the compound CCn1cc(C(=O)O)c(=O)c2cc(F)c(N3CCN(Cc4nc5ccccc5n4Cc4cccc(Cl)c4)CC3)cc21 , give its measured MIC value.
16

Complete the entry with MIC for CCCCCCn1c(CN2CCN(c3cc4c(cc3F)c(=O)c(C(=O)O)cn4C3CC3)CC2)nc2ccccc21
16

Values were extracted from ChEMBL document CHEMBL3769303.
